Experiment: TLR3 IRF3 reporter activation blockers – cell-based, poly I:C stimulus, luciferase, 10K MLSCN set, primary screen (AID 602277)
Conditions: HEK293-TLR3 RL24 IRF3 luciferase reporter, at 10 µM, hits give high values
Criterion: inhibition meeting or surpassing 20%. Met: 1.0. Not met: 0.0.

Compound	Answer label
CC(=O)NC(C)c1nc2ccccc2n1C(C)C (stereo not drawn)	1.0

query: Item O=C(CSc1nnc(Cn2c(=O)sc3ccccc32)n1-c1ccccc1)NCC1CCCO1 (stereo not drawn) with inhibition of 20% or above?
result: 1.0

query: What do you have for O=C(Nc1ccccc1C(=O)N1CCOCC1)C1CCC(=O)N1C1CCCC1 (stereo not drawn) ?
result: 0.0

query: What do you have for Cc1nc2sc(C(c3cccs3)N3CCC(C(N)=O)CC3)c(O)n2n1 (stereo not drawn) ?
result: 1.0

query: What do you have for CC(C)=CCCC(C)N(C=O)C(C)CCC=C(C)C (stereo not drawn) ?
result: 0.0

Every entry's value here was drawn from PubChem BioAssay.
